Target Under Test: hSERT (Homo sapiens)
Construct: expressed in transfected cells; host or cells: HEK-293 derived cell line, stably transfected; membrane preparation
Test Protocol: hSERT binding assay (Assay 1)
Measurement Setup: ratio of SERT Ki to NET Ki from binding assays
Parameter: SERT Ki/NET Ki
Respond numerically, and do not add a unit to the figure.

IN: Bench note: what SERT Ki/NET Ki did Clc1ccc(Cl)c(OC(c2ccccc2)C2CCNC2)c1 (stereo not drawn) show?
OUT: 0.2

IN: Which measured SERT Ki/NET Ki value corresponds to COc1ccc(F)cc1O[C@@H](c1cc(F)cc(F)c1)[C@H]1CCNC1 ?
OUT: 79

IN: Sample Cc1cc(F)cc(C(Oc2ccc(Cl)cc2F)C2CCNC2)c1 (stereo not drawn) — what was its SERT Ki/NET Ki?
OUT: 0.5

IN: Which SERT Ki/NET Ki value is on record for FC(F)(F)c1cc(Cl)ccc1OC(c1ccccc1)C1CCNC1 (stereo not drawn) ?
OUT: 0.6

IN: Requested field: SERT Ki/NET Ki. Item: N#Cc1cccc(C(Oc2cc(Cl)ccc2Cl)C2CCNC2)c1 (stereo not drawn)
OUT: 13

IN: # SERT Ki/NET Ki lookup, item CCOC(=O)c1cc(Cl)ccc1O[C@@H](c1ccccc1)[C@H]1CCNC1
OUT: 0.6

IN: State the recorded SERT Ki/NET Ki for this entry: Cc1cccc(Cl)c1O[C@@H](c1ccccc1)[C@H]1CCNC1
OUT: 1.6

IN: // returns reported SERT Ki/NET Ki for input Fc1ccc(F)c(O[C@H](c2ccccc2)[C@@H]2CCNC2)c1
OUT: 0.5

IN: What value of SERT Ki/NET Ki has been recorded for this entry: Fc1cc(F)cc([C@H](Oc2cc(Cl)ccc2Cl)[C@H]2CCNC2)c1 [32-25]
OUT: 25

IN: Quick one: SERT Ki/NET Ki of COc1ccc(Cl)cc1OC(c1cccc(Cl)c1)C1CCNC1 (stereo not drawn) ?
OUT: 0.6

IN: Would you kindly share the measured SERT Ki/NET Ki for COc1ccc(C)cc1OC(c1ccccc1)C1CCNC1 (stereo not drawn) ?
OUT: 2

IN: Look at this molecule and give its reported SERT Ki/NET Ki. Cc1ccc(OC(c2ccccc2)C2CCNC2)cc1F (stereo not drawn) [33-2]
OUT: 0.1

IN: Look up SERT Ki/NET Ki for this molecule: Cc1ccc(F)cc1OC(c1ccccc1)C1CCNC1 (stereo not drawn) [29-15]
OUT: 1.3

IN: Value lookup for SERT Ki/NET Ki; key = COc1ccc(F)cc1O[C@H](c1ccccc1)[C@@H]1CCNC1
OUT: 0.3

IN: Please give the measured SERT Ki/NET Ki for this molecule: Fc1cc(F)cc(C(Oc2cc(Cl)ccc2Cl)C2CCNC2)c1 (stereo not drawn) [30-3]
OUT: 0.3

IN: Find the recorded SERT Ki/NET Ki belonging to COC(=O)c1cc(Cl)ccc1OC(c1ccccc1)C1CCNC1 (stereo not drawn) and report it.
OUT: 4

IN: Quick one: SERT Ki/NET Ki of Fc1cc(Cl)cc(C(Oc2ccc(Cl)cc2F)C2CCNC2)c1 (stereo not drawn) ?
OUT: 0.8

IN: Which measured SERT Ki/NET Ki value corresponds to Fc1ccc(Cl)cc1OC(c1ccccc1)C1CCNC1 (stereo not drawn) ?
OUT: 1.6

IN: What measured SERT Ki/NET Ki goes with Fc1ccc(F)c(O[C@@H](c2ccccc2)[C@H]2CCNC2)c1 ?
OUT: 32

IN: # get_value(readout='SERT Ki/NET Ki', item= COC(=O)c1cccc(Cl)c1O[C@@H](c1ccccc1)[C@H]1CCNC1 )
OUT: 25

IN: Fill blank: measured SERT Ki/NET Ki of the molecule Cc1cccc(Cl)c1OC(c1ccccc1)C1CCNC1 (stereo not drawn) [31-13] is ____.
OUT: 0.6

----------
Would you mind telling me the reported SERT Ki/NET Ki of each entry?
Target Under Test: hSERT (Homo sapiens)
Construct: expressed in transfected cells; host or cells: HEK-293 derived cell line, stably transfected; membrane preparation
Test Protocol: hSERT binding assay (Assay 1)
Measurement Setup: ratio of binding Ki at hSERT to Ki at hNET, rounded off to the nearest tenth
Please reply with the number alone, leaving off any unit.

IN: What is its SERT Ki/NET Ki for hSERT (Homo sapiens)? Entry: c1ccc(Oc2cccc(OC(c3ccccc3)C3CCNC3)c2)cc1 (stereo not drawn)
OUT: 1.3

IN: Lookup: SERT Ki/NET Ki / hSERT (Homo sapiens) / Cc1cccc(O[C@@H](c2ccccc2)[C@H]2CCNC2)c1
OUT: 2.5

IN: hSERT (Homo sapiens) / SERT Ki/NET Ki / Fc1c(Cl)cccc1OC(c1ccccc1)C1CCNC1 (stereo not drawn) [Compound 25-4] : value?
OUT: 5

IN: Notebook: pull reported SERT Ki/NET Ki for hSERT (Homo sapiens), entry CC(C)Oc1ccccc1OC(c1ccccc1)C1CCNC1 (stereo not drawn)
OUT: 40

IN: What measured SERT Ki/NET Ki is associated with Ic1cccc(OC(c2ccccc2)C2CCNC2)c1 (stereo not drawn) on hSERT (Homo sapiens)?
OUT: 0.2

IN: # value lookup — system hSERT (Homo sapiens), readout SERT Ki/NET Ki, item COc1c(F)cccc1O[C@@H](c1ccccc1)[C@H]1CCNC1
OUT: 13

IN: // lookup SERT Ki/NET Ki | system=hSERT (Homo sapiens) | key= COc1ccccc1O[C@H](c1cccc(Cl)c1)[C@@H]1CCNC1 (racemic)
OUT: 13

IN: Which SERT Ki/NET Ki is reported with hSERT (Homo sapiens) for this entry: COc1ccccc1OC(c1cc(F)cc(F)c1)C1CCNC1 (racemic) ?
OUT: 10

IN: Any idea what SERT Ki/NET Ki came out for COc1ccccc1O[C@@H](c1cc(C)cc(F)c1)[C@@H]1CCNC1 (racemic) on hSERT (Homo sapiens)?
OUT: 13

----------
Target Under Test: hSERT (Homo sapiens, UniProt P31645)
Construct: expressed in transfected cells; host or cells: HEK-293 derived cell line, stably transfected; membrane preparation
Sequence (P31645 whole entry): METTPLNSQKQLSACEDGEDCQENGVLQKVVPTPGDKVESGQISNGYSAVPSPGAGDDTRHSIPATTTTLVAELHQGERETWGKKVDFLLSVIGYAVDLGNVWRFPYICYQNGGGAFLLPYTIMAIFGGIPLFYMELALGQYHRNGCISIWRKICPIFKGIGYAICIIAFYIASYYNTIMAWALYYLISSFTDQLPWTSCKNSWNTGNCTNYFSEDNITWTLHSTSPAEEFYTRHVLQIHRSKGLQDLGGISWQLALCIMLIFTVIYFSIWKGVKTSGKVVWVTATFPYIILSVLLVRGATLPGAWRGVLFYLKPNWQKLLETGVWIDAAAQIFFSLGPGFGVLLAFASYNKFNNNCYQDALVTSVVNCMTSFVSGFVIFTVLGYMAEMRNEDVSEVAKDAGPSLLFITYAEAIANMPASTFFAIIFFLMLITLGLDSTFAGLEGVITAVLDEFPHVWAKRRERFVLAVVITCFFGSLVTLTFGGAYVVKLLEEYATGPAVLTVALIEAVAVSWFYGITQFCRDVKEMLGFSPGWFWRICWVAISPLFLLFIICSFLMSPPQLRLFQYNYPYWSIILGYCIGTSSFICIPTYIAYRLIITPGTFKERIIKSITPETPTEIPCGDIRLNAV
Test Protocol: hSERT binding assay (Assay 1)
Measurement Setup: ratio of SERT Ki to NET Ki (binding)
Hi, to clarify the labels: true covers SERT Ki/NET Ki from 0.4 upward, false covers anything below 0.4.

IN: Confirm if SERT Ki/NET Ki reported for the compound Fc1cc(F)cc(C(Oc2c(F)ccc(F)c2F)C2CCNC2)c1 (stereo not shown) is 0.4 or above.
OUT: true

IN: Answer whether SERT Ki/NET Ki of COc1ccc(F)c(OC(c2ccccc2)C2CCNC2)c1Cl (stereo not shown) is greater than or equal to 0.4.
OUT: false

IN: Kindly determine if SERT Ki/NET Ki recorded for Fc1cc(F)c(Cl)c(O[C@@H](c2ccccc2)[C@H]2CCNC2)c1 is above or exactly 0.4.
OUT: true

IN: Record Cc1ccc(F)c(O[C@@H](c2ccccc2)[C@@H]2CCNC2)c1Cl ; criterion: SERT Ki/NET Ki no lower than 0.4. Met?
OUT: false

IN: # check: SERT Ki/NET Ki of Fc1cc(Cl)cc(C(Oc2cc(Cl)cc(Cl)c2)C2CCNC2)c1 (stereo not shown) is greater than or equal to 0.4
OUT: true

IN: Could you tell me if the measured SERT Ki/NET Ki of Fc1ccc(Cl)c(F)c1O[C@@H](c1ccccc1)[C@H]1CCNC1 reaches 0.4 or more?
OUT: true

----------
Target Under Test: hNET (Homo sapiens)
Construct: expressed in transfected cells; host or cells: HEK-293 derived cell line, stably transfected; membrane preparation
Sequence (P23975 whole entry): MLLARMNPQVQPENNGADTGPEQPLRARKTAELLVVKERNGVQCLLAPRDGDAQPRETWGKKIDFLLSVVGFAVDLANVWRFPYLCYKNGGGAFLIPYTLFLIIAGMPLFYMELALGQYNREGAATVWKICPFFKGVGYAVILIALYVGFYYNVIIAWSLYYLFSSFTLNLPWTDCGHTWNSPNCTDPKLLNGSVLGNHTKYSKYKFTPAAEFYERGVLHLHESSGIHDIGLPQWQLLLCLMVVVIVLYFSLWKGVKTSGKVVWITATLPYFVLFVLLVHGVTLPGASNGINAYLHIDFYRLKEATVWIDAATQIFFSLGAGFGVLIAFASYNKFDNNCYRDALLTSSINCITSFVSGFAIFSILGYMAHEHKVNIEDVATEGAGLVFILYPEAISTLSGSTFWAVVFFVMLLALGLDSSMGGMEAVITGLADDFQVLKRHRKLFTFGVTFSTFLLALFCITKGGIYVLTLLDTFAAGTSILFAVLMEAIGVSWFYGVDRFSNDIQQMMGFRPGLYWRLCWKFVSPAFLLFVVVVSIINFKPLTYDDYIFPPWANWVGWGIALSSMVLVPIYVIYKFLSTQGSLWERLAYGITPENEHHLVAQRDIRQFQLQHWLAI
Test Protocol: hNET binding assay (Assay 1)
Measurement Setup: membranes of HEK-293 cells expressing hNET, 1.0 nM 3H-nisoxetine; read-out: NET pKi (converted)
Please respond with reported Ki for every item in the list.

IN: I would be grateful if you could share the reported Ki for Fc1c(Oc2ccccc2)cccc1OC(c1ccccc1)C1CCNC1 (stereo not shown) [Compound 25-8] .
OUT: 2.51 nM

IN: Query: Ki; subject: COc1ccccc1OC(c1ccccc1OC(F)(F)F)C1CCNC1 (stereo not shown) [Compound 20-23]
OUT: 5.01 nM

IN: I am curious: what Ki value has been reported for Cc1cccc(OC(c2ccccc2)C2CCNC2)c1C (stereo not shown) [Compound 25-23] ?
OUT: 1.58 nM

IN: Tell me the measured Ki of COc1ccccc1OC(c1ccc(Cl)cc1)C1CCNC1 (stereo not shown) [Compound 20-21] , please.
OUT: 2 nM

IN: I would be grateful if you could share the reported Ki for Clc1c(Oc2ccccc2)cccc1OC(c1ccccc1)C1CCNC1 (stereo not shown) [Compound 25-15] .
OUT: 2.51 nM

IN: I'd like to know its Ki. The compound in question is Clc1ccc(Oc2cccc(OC(c3ccccc3)C3CCNC3)c2)cc1 (stereo not shown) [Compound 21-16]
OUT: 6.31 nM

IN: Consider the compound Clc1cccc(Oc2cccc(OC(c3ccccc3)C3CCNC3)c2)c1 (stereo not shown) [Compound 21-14] and give its measured Ki.
OUT: 5.01 nM

IN: I am curious: what Ki value has been reported for c1ccc(-c2ccccc2OC(c2ccccc2)C2CCNC2)cc1 (stereo not shown) [Compound 19-19] ?
OUT: 2 nM

IN: // lookup Ki for Fc1cccc(O[C@@H](c2ccccc2)[C@H]2CCNC2)c1Cl [Ex. 9-4]
OUT: 0.631 nM

IN: Query (compound): Fc1cccc(O[C@H](c2ccccc2)[C@@H]2CCNC2)c1F [Compound 25-2] ; field requested: Ki
OUT: 6.31 nM

IN: Item COc1c(F)cccc1O[C@@H](c1ccccc1)[C@H]1CCNC1 [Compound 25-26] has what recorded Ki?
OUT: 1.26 nM

IN: Item under review: Cc1c(Cl)cccc1OC(c1ccccc1)C1CCNC1 (stereo not shown) [Compound 25-20] . Reported Ki?
OUT: 0.631 nM

IN: Can you share its Ki? I mean this compound: Fc1ccc(Oc2cccc(O[C@H](c3ccccc3)[C@@H]3CCNC3)c2)cc1 (racemic) [Compound 21-15]
OUT: 2 nM

IN: I would be grateful if you could share the reported Ki for Fc1cccc(OC(c2ccccc2)C2CCNC2)c1F (stereo not shown) [Compound 25-1] .
OUT: 0.794 nM

IN: Query: Ki; subject: COc1cccc(C(Oc2ccccc2Cl)C2CCNC2)c1 (stereo not shown) [Compound 20-7]
OUT: 3.16 nM

IN: What Ki value was documented for this compound, Ic1cccc(OC(c2ccccc2)C2CCNC2)c1 (stereo not shown) [Compound 21-6] ?
OUT: 3.98 nM

IN: Name the reported Ki value associated with the compound Fc1c(Cl)cccc1O[C@H](c1ccccc1)[C@@H]1CCNC1 [Compound 25-5]
OUT: 1.58 nM

IN: State the recorded Ki for this entry: c1ccc(Cc2ccccc2OC(c2ccccc2)C2CCNC2)cc1 (stereo not shown) [Compound 19-21]
OUT: 5.01 nM

IN: Field request: Ki | item: Clc1ccccc1OC(c1ccccc1Cl)C1CCNC1 (stereo not shown) [Compound 20-1]
OUT: 3.16 nM

Reference for the values: patent US7888386B2
